- TEST TARGET: ETS1 (UniProt P14921)
- Sequence: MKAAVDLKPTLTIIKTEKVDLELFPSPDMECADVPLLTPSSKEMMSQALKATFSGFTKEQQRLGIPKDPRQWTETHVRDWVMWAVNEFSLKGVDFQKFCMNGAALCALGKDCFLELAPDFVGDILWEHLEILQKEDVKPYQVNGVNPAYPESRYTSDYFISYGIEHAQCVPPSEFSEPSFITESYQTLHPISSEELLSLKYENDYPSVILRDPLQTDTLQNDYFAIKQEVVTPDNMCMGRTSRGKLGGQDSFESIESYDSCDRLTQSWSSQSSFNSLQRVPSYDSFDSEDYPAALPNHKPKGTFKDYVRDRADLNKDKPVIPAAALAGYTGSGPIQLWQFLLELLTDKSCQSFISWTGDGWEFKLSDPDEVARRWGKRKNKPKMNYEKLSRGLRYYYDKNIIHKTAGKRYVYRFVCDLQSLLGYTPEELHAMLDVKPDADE
- PROTOCOL SUMMARY: ETS1 binding intensity (PBM fluorescence), ETS1 alone (arbitrary fluorescence units); higher = stronger binding
- SETTINGS: ETS1 concentration 1 nM; RUNX1 concentration 0 nM
Cut-off 800 on ETS1 binding intensity, inclusive. At or above means 1.0; below means 0.0.

Take a look at these entries with their results.
> print(dat)
                        sequence.content            test.target  cat
 1  TTCTCTGATTTTCCTTCCGCTCCCACAGCCTCTCCC  ETS1 (UniProt P14921)  0.0
 2  CCGTGGAAGGAAACGCTGCCAACCGCAACAGAAATG  ETS1 (UniProt P14921)  0.0
 3  TAAAGAAACAGGATGACTGTGGTTTACTGCGAGCAT  ETS1 (UniProt P14921)  0.0
 4  CTTCGACCCCGGAAGCGCTAACCACCCCGGGGGCCG  ETS1 (UniProt P14921)  1.0
 5  AACCTAGAAAAGGAAGCTGCGGTTTTTCAGGGTATG  ETS1 (UniProt P14921)  0.0
 6  AGGTACTCACCATTCCGGCGGTTGCTACTGTCACTG  ETS1 (UniProt P14921)  0.0
 7  CCTCAATTTCCTGGCCAGAGAAACCACTGCCTCTCA  ETS1 (UniProt P14921)  0.0
 8  GGGAGGCCCCATCCTGTGTGGCTGTGGCTTTTGCCT  ETS1 (UniProt P14921)  0.0
 9  GTACTGAGTCACAGGAAACCACAAGGGAAGGGTCCC  ETS1 (UniProt P14921)  1.0
10  ACCACCCCCCGTTTCCTCCGAAGTGGTTGGTGCCTT  ETS1 (UniProt P14921)  0.0

Is the recorded value of ETS1 binding intensity equal to or greater than 800 for this sequence? GGGGAACGGAAGCTGCTGTCGTTACTGGCGGTTGTA 1.0

Now give it for GACAGGAAGTGACCTCAATTTCCCCGGCCACAGAAA too. 1.0

Then this sequence: TCCCTCCTTCCGCTCTGGTTTTGTGGTTGCTTGCTG 1.0
